- Experiment: Binding assay for glycopeptide antibiotic (biotinylated vancomycin, immobilized peptide)
- Setup conditions: peptide immobilized on streptavidin plate
- Experimental: A typical binding assay for glycopeptide antibiotic was performed according to the following procedure. […] Plates were incubated for 30 minutes at room temperature with shaking prior to washing several times with buffer-T. Glycopeptide antibiotic was then detected by adding 100 μl of a diluted streptavidin-alkaline phosphatase conjugate to each well and incubated at room temperature for 30 minutes. […]
Square brackets hold non-standard residues; d marks the D form. Ends that are not written are not given here. Aun = NCCCCCCCCCCC(=O)O
Metric name: EC50 (µM)
Numbers only here, please. The scale is µM.

# substance SSSCLIDMYGVCHNFDGAYDSSRG [Compound 134] ; its EC50 = 10

// sample SSHRTNHKKNNPKKKNKTRGSSGK [Compound 131] , its EC50 was 0.1

Measured EC50, SSHRTNHKKNNPKKKNKTRGSSGK [Compound 130, AUD-AUD-AUD-AUD-AUD-AUD-SEQ ID NO: 122] : 10

Given item Ac-Y-AUD-AUD-AUD-AUD-AUD-AUD-SEQ ID NO: 122 (Ac-Y[Aun][Aun][Aun][Aun][Aun][Aun]SSHRTNHKKNNPKKKNKTRGSSGK) [Compound 132] , the value recorded as its EC50 is 0.06
